All values here come from patent US20240390357A1.

Biological target: GBA (glucosylceramidase, GCase), L444P GBA mutation (Homo sapiens, UniProt P04062, L483P)
Construct: Human fibroblast cell line GM10915 harboring the L444P GBA mutation was obtained from Coriell Biorepositories; host or cells: GM10915 human fibroblasts
Sequence (P04062 40-536 L483P): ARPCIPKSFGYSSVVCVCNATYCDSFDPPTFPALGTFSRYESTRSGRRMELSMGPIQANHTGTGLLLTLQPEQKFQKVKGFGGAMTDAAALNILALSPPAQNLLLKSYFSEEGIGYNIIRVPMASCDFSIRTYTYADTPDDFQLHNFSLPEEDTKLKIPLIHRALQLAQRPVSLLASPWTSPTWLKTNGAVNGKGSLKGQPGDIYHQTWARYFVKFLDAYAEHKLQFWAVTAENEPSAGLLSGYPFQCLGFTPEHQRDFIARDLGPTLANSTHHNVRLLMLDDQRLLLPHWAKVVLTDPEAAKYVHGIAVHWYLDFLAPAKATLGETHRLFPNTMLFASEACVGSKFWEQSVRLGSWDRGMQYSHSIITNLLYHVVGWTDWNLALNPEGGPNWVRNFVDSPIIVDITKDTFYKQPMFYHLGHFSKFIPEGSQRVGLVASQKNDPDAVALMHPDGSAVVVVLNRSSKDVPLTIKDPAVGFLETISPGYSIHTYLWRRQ
Assay: GCase activity assay (4-MUG) in GM10915 fibroblasts, normalised to crystal violet staining
Assay type: cell-based
Details: maximum Percent GCase activity in the dose range tested, relative to basal activity of untreated cells; GM10915 (L444P GBA), five days exposure
ASSAY METRIC: Emax (%)

Lookup: Output Emax of c1c(C2CCNCC2)noc1CN1CCCCC1 [compound 586]
Found: 234

Lookup: Output Emax of c1cc(CN2CCCCC2)ncc1C1CCNC1 (stereo not drawn) [compound 808]
Found: 175

Lookup: Output Emax of CC(c1cncc(C2CCCNC2)c1)N1CCCCC1 (stereo not drawn) [compound 761]
Found: 205

Lookup: Output Emax of c1cc(CN2CCCCC2)ncc1C1CCNCC1 [compound 775]
Found: 186

I: Cc1cc(C2CCNCC2)nc(CN2CCCCC2)n1 [compound 739]
II: c1cc(C2CCCNC2)ncc1CN1CCCCC1 (stereo not drawn) [compound 811]
Lookup: I need your help: which of the pair I , II has higher Emax? Could you answer with the label of the item you picked?
Found: II

----------
molecular target: GBA (glucosylceramidase, GCase), L444P GBA mutation (Homo sapiens, UniProt P04062, L483P); construct: Human fibroblast cell line GM10915 harboring the L444P GBA mutation was obtained from Coriell Biorepositories; host or cells: GM10915 human fibroblasts; experiment: GCase activity assay (4-MUG) in GM10915 fibroblasts, normalised to crystal violet staining; format: cell-based; settings: maximum Percent GCase activity in the dose range tested, relative to basal activity of untreated cells; GM10915 (L444P GBA), five days exposure
ASSAY METRIC: Emax (%)

Lookup: Output Emax of c1cc(CN2CCCCC2)nc(C2CCCNC2)c1 (centres unmarked) [compound 791]
Found: 165

I: c1nc(CN2CCCCC2)cc(C2CCNC2)n1 (centres unmarked) [compound 832]
II: COc1ncc(C2CCN(C)C2)cc1CN1CCCCC1 (centres unmarked) [compound 812]
Lookup: I need your help: which of the pair I , II has higher Emax? Could you answer with the label of the item you picked?
Found: II
(II: 255%, I: 175%)

----------
molecular target: GBA (glucosylceramidase, GCase), L444P GBA mutation (Homo sapiens, UniProt P04062, L483P); construct: Human fibroblast cell line GM10915 harboring the L444P GBA mutation was obtained from Coriell Biorepositories; host or cells: GM10915 human fibroblasts; assay: GCase activity assay (4-MUG) in GM10915 fibroblasts, normalised to crystal violet staining; format: cell-based; conditions: maximum Percent GCase activity in the dose range tested, relative to basal activity of untreated cells; GM10915 (L444P GBA), five days exposure
ASSAY METRIC: Emax (%)

These recorded examples may help you get a feel for the data.
Lookup: Output Emax of c1nc(C2CCCNC2)cnc1CN1CCCCC1 (centres unmarked)
Found: 180

Lookup: Output Emax of `Fc1cc(C2CCNCC2)cnc1CN1CCCCC1`
Found: 237

Lookup: Output Emax of `c1cc(C2CCNCC2)ncc1CN1CCCCC1`
Found: 200

Lookup: Output Emax of Cc1cc(CN2CCCCC2)cnc1C1CCCNC1 (centres unmarked)
Found: 233

Lookup: Output Emax of `c1nc2cnc(C3CCNCC3)cn2c1CN1CCCCC1`
Found: 181

Lookup: Output Emax of `CN1CCC(c2cccc(CN3CCCCC3)n2)CC1`
Found: 269

A: COc1ncc(C2CCN(C)CC2)cc1CN1CCCCC1
B: c1c(C2CCNC2)noc1CN1CCCCC1 (centres unmarked)
Lookup: I need your help: which of the pair A , B has higher Emax? Could you answer with the label of the item you picked?
Found: B

----------
target: GBA (glucosylceramidase, GCase), L444P GBA mutation (Homo sapiens, UniProt P04062, L483P); construct: Human fibroblast cell line GM10915 harboring the L444P GBA mutation was obtained from Coriell Biorepositories; host or cells: GM10915 human fibroblasts; assay: GCase activity assay (4-MUG) in GM10915 fibroblasts, normalised to crystal violet staining; assay type: cell-based; conditions: concentration where Percent GCase activity = 150% (1.5-fold induction); human fibroblast cell line GM10915 (L444P GBA), five days exposure, 8-point dose range
ASSAY METRIC: GBA EC1.5 (µM)

Lookup: Output GBA EC1.5 of `COc1ncc(C2CCNCC2)cc1CN1CCCCC1`
Found: 24.8

A: c1cc(CN2CCCCC2)ncc1C1CCNC1 (centres unmarked)
B: CN1CCC(c2cnc(CN3CCCCC3)cn2)CC1
C: c1cc(CN2CCCCC2)nc(C2CCCNC2)c1 (centres unmarked)
Lookup: With regard to GBA EC1.5, arrange the entries in ascending order, please. Dear reader, please state the labels in the requested order.
Found: C, B, A
(C: 4.4 µM, B: 9.7 µM, A: 28.6 µM)

----------
target: GBA (glucosylceramidase, GCase), L444P GBA mutation (Homo sapiens, UniProt P04062, L483P); construct: Human fibroblast cell line GM10915 harboring the L444P GBA mutation was obtained from Coriell Biorepositories; host or cells: GM10915 human fibroblasts; test: GCase activity assay (4-MUG) in GM10915 fibroblasts, normalised to crystal violet staining; assay type: cell-based; settings: maximum Percent GCase activity in the dose range tested, relative to basal activity of untreated cells; GM10915 (L444P GBA), five days exposure
ASSAY METRIC: Emax (%)

Lookup: Output Emax of `Cc1cc(CN2CCCCC2)cnc1C1CCN(C)CC1`
Found: 200

Lookup: Output Emax of `c1cc(C2CCNCC2)nnc1CN1CCCCC1`
Found: 163

Lookup: Output Emax of `c1cn2cc(CN3CCCCC3)nc2cc1C1CCNCC1`
Found: 194

Lookup: Output Emax of `c1cc(CN2CCCCC2)cc(C2CCNCC2)n1`
Found: 177

Lookup: Output Emax of `Cc1ccc(CN2CCCCC2)nc1C1CCN(C)CC1`
Found: 173

Lookup: Output Emax of `c1cc(CN2CCCCC2)nc(C2CCNCC2)c1`
Found: 278

Lookup: Output Emax of COc1ncc(C2CCCNC2)cc1CN1CCCCC1 (centres unmarked)
Found: 223

Lookup: Output Emax of CN1CCCC(c2cc(CN3CCCCC3)ncn2)C1 (centres unmarked)
Found: 256

Lookup: Output Emax of CN1CCCC(c2ccc(CN3CCCCC3)cn2)C1 (centres unmarked)
Found: 199

Lookup: Output Emax of CN1CCCC(c2ccc(CN3CCCCC3)nc2)C1 (centres unmarked)
Found: 200

Lookup: Output Emax of `CN1CCC(c2cnc(CN3CCCCC3)cn2)CC1`
Found: 198

----------
biological target: GBA (glucosylceramidase, GCase), L444P GBA mutation (Homo sapiens, UniProt P04062, L483P); construct: Human fibroblast cell line GM10915 harboring the L444P GBA mutation was obtained from Coriell Biorepositories; host or cells: GM10915 human fibroblasts; assay: GCase activity assay (4-MUG) in GM10915 fibroblasts, normalised to crystal violet staining; format: cell-based; details: maximum Percent GCase activity in the dose range tested, relative to basal activity of untreated cells; GM10915 (L444P GBA), five days exposure
ASSAY METRIC: Emax (%)

a: COc1ncc(C2CCNCC2)cc1CN1CCCCC1
b: CN1CCC(c2cccc(CN3CCCCC3)n2)C1 (centres unmarked)
Lookup: Between item a and item b , which reported Emax is smaller? Could you answer with the label of the item you picked?
Found: a

----------
Biological target: GBA (glucosylceramidase, GCase), L444P GBA mutation (Homo sapiens, UniProt P04062, L483P)
Construct: Human fibroblast cell line GM10915 harboring the L444P GBA mutation was obtained from Coriell Biorepositories; host or cells: GM10915 human fibroblasts
Sequence (P04062 40-536 L483P): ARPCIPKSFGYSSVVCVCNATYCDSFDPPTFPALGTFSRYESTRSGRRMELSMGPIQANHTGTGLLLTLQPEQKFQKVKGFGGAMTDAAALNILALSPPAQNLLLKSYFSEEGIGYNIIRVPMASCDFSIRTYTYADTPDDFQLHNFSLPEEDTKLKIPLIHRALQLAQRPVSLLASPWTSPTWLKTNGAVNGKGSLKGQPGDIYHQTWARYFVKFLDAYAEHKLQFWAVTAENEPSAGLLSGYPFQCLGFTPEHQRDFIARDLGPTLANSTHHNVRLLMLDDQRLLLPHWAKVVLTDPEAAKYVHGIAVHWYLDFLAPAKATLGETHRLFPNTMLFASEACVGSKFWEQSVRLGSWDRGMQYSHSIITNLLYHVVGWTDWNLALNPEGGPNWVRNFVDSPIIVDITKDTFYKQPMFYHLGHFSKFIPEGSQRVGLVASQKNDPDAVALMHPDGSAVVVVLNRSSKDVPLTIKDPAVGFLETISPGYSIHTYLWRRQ
Assay: GCase activity assay (4-MUG) in GM10915 fibroblasts, normalised to crystal violet staining
Format: cell-based
Conditions: concentration where Percent GCase activity = 150% (1.5-fold induction); human fibroblast cell line GM10915 (L444P GBA), five days exposure, 8-point dose range
ASSAY METRIC: GBA EC1.5 (µM)

Lookup: Output GBA EC1.5 of `c1nc(C2CCNCC2)cnc1CN1CCCCC1`
Found: 19.1

Lookup: Output GBA EC1.5 of `c1cn2cc(CN3CCCCC3)nc2cc1C1CCNCC1`
Found: 9.4

Lookup: Output GBA EC1.5 of c1cc(CN2CCCCC2)ncc1C1CCCNC1 (stereo not shown)
Found: 4.2

Lookup: Output GBA EC1.5 of `c1cc(C2CCNCC2)nnc1CN1CCCCC1`
Found: 43.3

I: COc1ncc(C2CCN(C)C2)cc1CN1CCCCC1 (stereo not shown)
II: CN1CCC(c2cccc(CN3CCCCC3)n2)CC1
III: c1cn(C2CCNCC2)nc1CN1CCCCC1
IV: CCCCCO[C@H]1CC[C@H](NC(=O)c2cnn3c(C)cc(C)nc23)CC1 [LTI-291, reference compound]
Lookup: # rank_down: sort by GBA EC1.5, max first Dear reader, please state the labels in the requested order.
Found: IV, III, I, II
(IV: 112 µM, III: 21 µM, I: 6.7 µM, II: 3.0 µM)

1: CN1CCCC(c2cccc(CN3CCCCC3)n2)C1 (stereo not shown)
2: Cc1cc(C2CCCNC2)nc(CN2CCCCC2)n1 (stereo not shown) [compound 730]
3: c1cc2ncc(CN3CCCCC3)n2cc1C1CCNCC1
4: Cc1cc(C2CCCNC2)nc(CN2CCCCC2)n1 (stereo not shown) [compound 737]
Lookup: With regard to GBA EC1.5, arrange the entries in ascending order, please. Dear reader, please state the labels in the requested order.
Found: 1, 2, 3, 4

P: c1cc(C2CCCNC2)ncc1CN1CCCCC1 (stereo not shown)
Q: CC(c1cncc(C2CCCNC2)c1)N1CCCCC1 (stereo not shown)
Lookup: Between item P and item Q , which reported GBA EC1.5 is smaller? Could you answer with the label of the item you picked?
Found: P
(P: 3.4 µM, Q: 5.2 µM)

I: c1nc2cc(CN3CCCCC3)oc2cc1C1CCNCC1
II: Fc1cc(C2CCNCC2)cnc1CN1CCCCC1
Lookup: I need your help: which of the pair I , II has higher GBA EC1.5? Could you answer with the label of the item you picked?
Found: I
(I: 6.5 µM, II: 4.3 µM)
